Provide the recorded viability at 72 h, 0.195312 uM for the entries that follow.
Assay: Cytotoxicity assay (CellTiter-Glo, 72 h), MESO-1
Type: cell-based
Details: human, MESO-1 malignant pleural mesothelioma cells, conc 0.195312 uM; raw replicate data; read-out: MESO1 viability (%)
Report the value in % with no unit label.

Q) // query viability at 72 h, 0.195312 uM value for entry CO[C@H]1C[C@@H]2CC[C@@H](C)[C@@](O)(O2)C(=O)C(=O)N2CCCC[C@H]2C(=O)O[C@H]([C@H](C)C[C@@H]2CC[C@@H](O)[C@H](OC)C2)CC(=O)[C@H](C)/C=C(\C)[C@@H](O)CC[C@H](C)/C=C/C=C/C=C/1C
A) 68.6

Q) Also CO[C@@H]1C[C@H](C[C@@H](C)[C@@H]2CC(=O)[C@H](C)/C=C(\C)[C@@H](O)[C@@H](OC)C(=O)[C@H](C)C[C@H](C)/C=C/C=C/C=C(\C)[C@H](O)C[C@@H]3CC[C@@H](C)[C@@](O)(O3)C(=O)C(=O)N3CCCC[C@H]3C(=O)O2)CC[C@H]1O [Compound 17, (16R)-16-O-demethyl rapamycin] , if possible.
A) 71.5

Q) Record: CO[C@H]1C[C@@H]2CC[C@@H](C)[C@@](O)(O2)C(=O)C(=O)N2CCCC[C@H]2C(=O)O[C@H]([C@H](C)C[C@@H]2CC[C@@H](O)[C@H](OC)C2)CC(=O)[C@H](C)/C=C(\C)[C@@H](O)[C@@H](OC)C(=O)[C@H](C)C[C@H](C)/C=C/C=C/C=C/1C [Compound 1, rapamycin, reference compound]
A) 74.8

Q) Repeat with COC1CC2CCC(C)C(O)(O2)C(=O)C(=O)N2CCCCC2C(=O)OC(C(C)CC2CCC(O)C(OC)C2)CCC(C)C=C(C)C(O)C(OC)C(=O)C(C)CC(C)C=CC=CC=C1C (centres unmarked)
A) 68.5

Q) Can you handle COC1CC2CCC(C)C(O)(O2)C(=O)C(=O)N2CCCCC2C(=O)OC(C(C)CC2CCC(O)C(OC)C2)CC(=O)C(C)C=C(C)C(O)CC(=O)C(C)C=C(C)C=CC=CC=C1C (centres unmarked) next?
A) 90.3

----------
Can you tell me viability at 72 h, 0.0488281 uM for the items I'm about to list?
Assay: Cytotoxicity assay (CellTiter-Glo, 72 h), MESO-1
Format: cell-based
Conditions: human, MESO-1 malignant pleural mesothelioma cells, conc 0.0488281 uM; raw replicate data; read-out: MESO1 viability (%)
Expressed in %, but write only the number.

Q) I'd like to know its viability at 72 h, 0.0488281 uM. The compound in question is CO[C@@H]1/C=C/C=C/[C@@H](C)C[C@@H](C)C(=O)C[C@H](O)/C(C)=C/[C@@H](C)C(=O)C[C@@H]([C@H](C)C[C@@H]2CC[C@@H](O)[C@H](OC)C2)OC(=O)[C@@H]2CCCCN2C(=O)C(=O)[C@]2(O)O[C@@H](CC[C@H]2C)C1
A) 82.4

Q) Proceed to COC1CC2CCC(C)C(O)(O2)C(=O)C(=O)N2CCCCC2C(=O)OC(C(C)CC2CCC(O)C(OC)C2)CC(=O)C(C)C=C(C)C(O)CC(=O)C(C)C=C(C)C=CC=CC=C1C (stereo not shown)
A) 96.1

Q) Next: COC1CC2CCC(C)C(O)(O2)C(=O)C(=O)N2CCCCC2C(=O)OC(C(C)CC2CCC(O)C(OC)C2)CC(O)CC(=O)C(C)C=C(C)C(O)CC(=O)C(C)CC(C)C=CC=CC=C1C (stereo not shown)
A) 92.5

Q) Next record, please: COC1CC2CCC(C)C(O)(O2)C(=O)C(=O)N2CCCCC2C(=O)OC(C(C)CC2CCC(O)C(OC)C2)CCC(C)C=C(C)C(O)C(OC)C(=O)C(C)CC(C)C=CC=CC=C1C (stereo not shown)
A) 72.5

----------
Could you please report measured viability at 72 h, 0.0488281 uM for the items listed next?
Assay: Cytotoxicity assay (CellTiter-Glo, 72 h), Jurkat
Format: cell-based
Conditions: human, Jurkat cells (T lymphoma), conc 0.0488281 uM, raw data (replicates)
Procedure: Jurkat cells were cultured in RPMI1640 medium supplemented with 10% foetal bovine serum, penicillin (50 U/ml), streptomycin (50 μg/ml), and Glutamax. SKOV-3 cells were cultured in DMEM medium supplemented with 10% fetal bovine serum, penicillin (50 U/ml), and streptomycin (50 μg/ml). […] Cell viabilities were measured using a CellTiter-Glo luminescent cell viability assay and EnVision multilabel plate reader.
Record the value in %, omitting the unit from your answer.

Q) Which viability at 72 h, 0.0488281 uM is reported for this molecule? CO[C@H]1C[C@@H]2CC[C@@H](C)[C@@](O)(O2)C(=O)C(=O)N2CCCC[C@H]2C(=O)O[C@H]([C@H](C)C[C@@H]2CC[C@@H](O)[C@H](OC)C2)CC(=O)[C@H](C)/C=C(\C)[C@@H](O)[C@@H](OC)C(=O)[C@H](C)C[C@H](C)/C=C/C=C/C=C/1C [Compound 1, rapamycin, reference compound]
A) 24.5

Q) Follow-up entry: COC1CC2CCC(C)C(O)(O2)C(=O)C(=O)N2CCCCC2C(=O)OC(C(C)CC2CCC(O)C(OC)C2)CC(=O)C(C)C=C(C)C(O)C(OC)C(=O)C(C)CC(C)C=CCCC=C1C (stereo not drawn)
A) 84.9

Q) What about COC1CC2CCC(C)C(O)(O2)C(=O)C(=O)N2CCCCC2C(=O)OC(C(C)CC2CCC(O)C(OC)C2)CC(O)CC(=O)C(C)C=C(C)C(O)CC(=O)C(C)CC(C)C=CC=CC=C1C (stereo not drawn) ?
A) 91.3

----------
For each entry below, report its viability at 72 h, 0.000190735 uM value.
Experiment: Cytotoxicity assay (CellTiter-Glo, 72 h), Jurkat
Assay type: cell-based
Conditions: human, Jurkat cells (T lymphoma), conc 0.000190735 uM, raw data (replicates)
The figure you give is taken to be in %; do not add the unit.

Q) Which viability at 72 h, 0.000190735 uM is reported for this compound? COC1CC2CCC(C)C(O)(O2)C(=O)C(=O)N2CCCCC2C(=O)OC(C(C)CC2CCC(O)C(OC)C2)CC(O)CC(=O)C(C)C=C(C)C(O)CC(=O)C(C)CC(C)C=CC=CC=C1C (centres unmarked)
A) 100

Q) # repeat for CO[C@@H]1C[C@H](C[C@@H](C)[C@@H]2CC(=O)[C@H](C)/C=C(\C)[C@@H](O)[C@@H](OC)C(=O)[C@H](C)C[C@H](C)/C=C/C=C/C=C(\C)[C@H](O)C[C@@H]3CC[C@@H](C)[C@@](O)(O3)C(=O)C(=O)N3CCCC[C@H]3C(=O)O2)CC[C@H]1O [Compound 17, (16R)-16-O-demethyl rapamycin]
A) 101

----------
What viability at 72 h, 0.00038147 uM was measured for each of the following?
Test: Cytotoxicity assay (CellTiter-Glo, 72 h), Jurkat
Assay type: cell-based
Conditions: human, Jurkat cells (T lymphoma), conc 0.00038147 uM, raw data (replicates)
# output: bare number, implied unit %

Q) What does the data say about its viability at 72 h, 0.00038147 uM? Entry: CO[C@@H]1C[C@H](C[C@@H](C)[C@@H]2CC(=O)[C@H](C)/C=C(\C)[C@@H](O)[C@@H](OC)C(=O)[C@H](C)C[C@H](C)/C=C/C=C/C=C(\C)[C@H](O)C[C@@H]3CC[C@@H](C)[C@@](O)(O3)C(=O)C(=O)N3CCCC[C@H]3C(=O)O2)CC[C@H]1O [Compound 17, (16R)-16-O-demethyl rapamycin]
A) 107

Q) // repeat for CO[C@H]1C[C@@H]2CC[C@@H](C)[C@@](O)(O2)C(=O)C(=O)N2CCCC[C@H]2C(=O)O[C@H]([C@H](C)C[C@@H]2CC[C@@H](O)[C@H](OC)C2)CC(=O)[C@H](C)/C=C(\C)[C@@H](O)CC[C@H](C)/C=C/C=C/C=C/1C and report
A) 102

Q) COC1CC2CCC(C)C(O)(O2)C(=O)C(=O)N2CCCCC2C(=O)OC(C(C)CC2CCC(O)C(OC)C2)CCC(C)C=C(C)C(O)C(OC)C(=O)C(C)CC(C)C=CC=CC=C1C (stereo not drawn) , same question.
A) 91.3

Q) Record: COC1CC2CCC(C)C(O)(O2)C(=O)C(=O)N2CCCCC2C(=O)OC(C(C)CC2CCC(O)C(OC)C2)CC(O)CC(=O)C(C)C=C(C)C(O)CC(=O)C(C)CC(C)C=CC=CC=C1C (stereo not drawn)
A) 108

Q) And the next one, COC1CC2CCC(C)C(O)(O2)C(=O)C(=O)N2CCCCC2C(=O)OC(C(C)CC2CCC(O)C(OC)C2)CC(=O)C(C)C=C(C)C(O)CC(=O)C(C)C=C(C)C=CC=CC=C1C (stereo not drawn) ?
A) 100

Q) # iterate: COC1CC2CCC(C)C(O)(O2)C(=O)C(=O)N2CCCCC2C(=O)OC(C(C)CC2CCC(O)C(OC)C2)CC(=O)C(C)C=C(C)C(O)C(OC)C(=O)C(C)CC(C)C=CCCC=C1C (stereo not drawn)
A) 96.7
